Each entry below carries its reported pIC50.
- study-target: ETB (Rattus norvegicus)
- Sequence (P21451 27-442): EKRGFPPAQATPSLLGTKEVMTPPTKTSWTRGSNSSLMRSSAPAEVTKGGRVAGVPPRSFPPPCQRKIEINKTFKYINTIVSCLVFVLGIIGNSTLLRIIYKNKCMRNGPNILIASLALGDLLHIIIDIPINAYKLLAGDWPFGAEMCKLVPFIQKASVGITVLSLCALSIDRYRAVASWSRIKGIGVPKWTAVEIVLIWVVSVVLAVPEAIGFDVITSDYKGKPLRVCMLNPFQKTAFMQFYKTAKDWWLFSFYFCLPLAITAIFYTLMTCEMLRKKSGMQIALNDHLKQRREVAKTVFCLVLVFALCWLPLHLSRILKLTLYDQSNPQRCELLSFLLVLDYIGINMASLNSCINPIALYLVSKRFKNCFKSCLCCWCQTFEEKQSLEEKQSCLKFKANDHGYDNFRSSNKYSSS
Numbered stars: 1 amine (or outer) side, 2 acyl side, 3 side chain; on linkers, the order of the positions; unused ones are H or OH. Square brackets hold non-standard residues; d marks the D form. Peptide text beside a SMILES is read from it. * marks the point of attachment. dDip = N[C@@H](C(=O)O)C(c1ccccc1)c1ccccc1; Fmoc = O=C(OCC1c2ccccc2-c2ccccc21)*; CO = O=C([*:1])[*:2]
Units for pIC50: none; it is -log10 of a concentration expressed in mol/L.

// solved cases for pIC50 follow
INSERT INTO results (compound, readout_number) VALUES
  ('CC[C@H](C)[C@H](NC(=O)[C@H](CC(N)=O)NC(=O)[C@H](CC(C)C)NC(=O)[C@H](N)C(c1ccccc1)c1ccccc1)C(=O)N[C@H](C(=O)N[C@@H](Cc1c[nH]c2ccccc12)C(=O)O)[C@@H](C)CC [Example 70, D--Dip--Leu--Asn--Ile--Ile--Trp] (H-[dDip]LNIIW-OH)', 6.08),
  ('CC[C@H](C)[C@H](NC(=O)[C@H](CC(=O)O)NC(=O)[C@H](CC(C)C)NC(=O)[C@H](NC(=O)OCC1c2ccccc2-c2ccccc21)C(c1ccccc1)c1ccccc1)C(=O)N[C@H](C(=O)N[C@@H](Cc1c[nH]c2ccccc12)C(=O)O)[C@@H](C)CC [Example 30, Fmoc--D--Dip--Leu--Asp--Ile--Ile--Trp] (Fmoc-[dDip]LDIIW-OH)', 5.22),
  ('CC[C@H](C)[C@H](NC(=O)[C@H](CC(=O)O)NC(=O)[C@H](CC(C)C)NC(=O)[C@H](NC(C)=O)C(c1ccccc1)c1ccccc1)C(=O)N[C@H](C(=O)N[C@@H](Cc1c[nH]c2ccccc12)C(N)=O)[C@@H](C)CC [Example 24, Ac--D--Dip--Leu--Asp--Ile--Ile--Trp--NH2] (Ac-[dDip]LDIIW-NH2)', 5.30),
  ('CC[C@H](C)[C@H](NC(=O)[C@H](CC(=O)O)NC(=O)[C@H](CCC(=O)O)NC(=O)[C@H](NC(C)=O)C(c1ccccc1)c1ccccc1)C(=O)N[C@H](C(=O)N[C@@H](Cc1c[nH]c2ccccc12)C(=O)O)[C@@H](C)CC [Example 20, Ac--D--Dip--Glu--Asp--Ile--Ile--Trp] (Ac-[dDip]EDIIW-OH)', 7.28),
  ('CC[C@H](C)[C@H](NC(=O)[C@H](Cc1ccc(O)cc1)NC(=O)[C@H](N)C(c1ccccc1)c1ccccc1)C(=O)N[C@H](C(=O)N[C@@H](Cc1c[nH]c2ccccc12)C(=O)O)[C@@H](C)CC [Example 95, D--Dip--Tyr--Ile--Ile--Trp] (H-[dDip]YIIW-OH)', 6.46),
  ('CC[C@H](C)[C@H](NC(=O)[C@H](CCC(=O)O)NC(=O)[C@H](CC(=O)O)NC(=O)[C@H](CC(C)C)NC(=O)[C@H](NC(C)=O)C(c1ccccc1)c1ccccc1)C(=O)N[C@@H](Cc1c[nH]c2ccccc12)C(=O)O [Example 19, Ac--D--Dip--Leu--Asp--Glu--Ile--Trp] (Ac-[dDip]LDEIW-OH)', 5.22);

Data request: What does the record list as pIC50 for CC[C@H](C)[C@H](NC(=O)[C@H](CC(=O)O)NC(=O)[C@H](CC(C)C)NC(=O)[C@H](NC(=O)NC)C(c1ccccc1)c1ccccc1)C(=O)N[C@H](C(=O)N[C@@H](Cc1c[nH]c2ccccc12)C(=O)O)[C@@H](C)CC [Example 37, Me(U) --D--Dip--Leu--Asp--Ile--Ile--Trp] ({NHMe-CO}-[dDip]LDIIW-OH) ?
Data returned: 5.82

Source: patent US5773414A
